EXPERIMENT: Cytotoxicity against human Huh-7 cells assessed as reduction in cell viability incubated for 46 hrs by AlamarBlue dye based fluorescence analysis
Type: toxicity
ENDPOINT_NAME: CC50 at 46 h (µM)
Reply numerically in µM, unit not repeated.

| COMPOUND | ENDPOINT_NAME | UNIT_ABBREVIATION | ASSAY_VALUE |
| --- | --- | --- | --- |
| CC[C@@]1([C@@H]2O[C@@H]([C@H]3O[C@@](O)(COC(=O)Nc4ccccc4)[C@H](C)C[C@@H]3C)C[C@@H]2C)CC[C@H]([C@]2(C)CC[C@]3(C[C@H](O)[C@@H](C)[C@@H]([C@@H](C)[C@@H](OC)[C@H](C)C(=O)O)O3)O2)O1 | CC50 at 46 h | µM | 3.1 |
| CC[C@@]1([C@@H]2O[C@@H]([C@H]3O[C@@](O)(CO)[C@H](C)C[C@@H]3C)C[C@@H]2C)CC[C@H]([C@]2(C)CC[C@]3(C[C@H](O)[C@@H](C)[C@@H]([C@@H](C)[C@@H](OC)[C@H](C)C(=O)OCCCC[P+](c4ccccc4)(c4ccccc4)c4ccccc4)O3)O2)O1 | CC50 at 46 h | µM | 5.8 |
| CC[C@@]1([C@@H]2O[C@@H]([C@H]3O[C@@](O)(CO)[C@H](C)C[C@@H]3C)C[C@@H]2C)CC[C@H]([C@]2(C)CC[C@]3(C[C@H](O)[C@@H](C)[C@@H]([C@@H](C)[C@@H](OC)[C@H](C)C(=O)OCc4ccccc4)O3)O2)O1 | CC50 at 46 h | µM | 31.3 |
| COc1cc(NC(C)CCCN)c2ncccc2c1 (stereo not drawn) | CC50 at 46 h | µM | 139 |
| CC[C@@]1([C@@H]2O[C@@H]([C@H]3O[C@@](O)(CNC(=O)c4ccccc4)[C@H](C)C[C@@H]3C)C[C@@H]2C)CC[C@H]([C@]2(C)CC[C@]3(C[C@H](O)[C@@H](C)[C@@H]([C@@H](C)[C@@H](OC)[C@H](C)C(=O)O)O3)O2)O1 | CC50 at 46 h | µM | 8.4 |

Prompt: // lookup CC50 at 46 h for CC[C@@]1([C@@H]2O[C@@H]([C@H]3O[C@@](O)(CO)[C@H](C)C[C@@H]3C)C[C@@H]2C)CC[C@H]([C@]2(C)CC[C@]3(C[C@H](O)[C@@H](C)[C@@H]([C@@H](C)[C@@H](OC)[C@H](C)C(=O)O)O3)O2)O1
Response: 17.5

Prompt: And then CC[C@@]1([C@@H]2O[C@@H]([C@H]3O[C@@](O)(CNC(=O)CCC[P+](c4ccccc4)(c4ccccc4)c4ccccc4)[C@H](C)C[C@@H]3C)C[C@@H]2C)CC[C@H]([C@]2(C)CC[C@]3(C[C@H](O)[C@@H](C)[C@@H]([C@@H](C)[C@@H](OC)[C@H](C)C(=O)O)O3)O2)O1 , what is it?
Response: 75.3

Prompt: Please do the same for CC[C@@]1([C@@H]2O[C@@H]([C@H]3O[C@@](O)(CNC(=O)Nc4ccccc4)[C@H](C)C[C@@H]3C)C[C@@H]2C)CC[C@H]([C@]2(C)CC[C@]3(C[C@H](O)[C@@H](C)[C@@H]([C@@H](C)[C@@H](OC)[C@H](C)C(=O)O)O3)O2)O1 as well.
Response: 4.2

These measurements were taken from ChEMBL document CHEMBL6182887.
